# target system: Tubulin (Sus scrofa, UniProt P02554+P02550)
# procedure details: Inhibition of pig tubulin polymerization determined after 45 mins at 37 degC by turbidimetric analysis
# Assay type: protein assay
Let's look at some compounds and their measured IC50.
Entry rule: numbers only, all in µM.

COc1ccc(C(=O)N2c3ccccc3S(=O)(=O)c3ccc(OC)cc32)cc1 | 4.69
COc1ccc(C(=O)N2c3ccccc3Sc3ccc(SC)cc32)cc1 | 1.43

Exam item: Give its IC50 value. Item: COc1ccc(C(=O)N2c3ccccc3[S+]([O-])c3ccc(OC)cc32)cc1 (stereo not given)
Marked response: 23.31

Exam item: Give its IC50 value. Item: COc1ccc(C(=O)N2c3ccccc3Oc3cc(C#N)ccc32)cc1
Marked response: 0.73

###

# target system: Tubulin (Sus scrofa, UniProt P02554+P02550)
# procedure details: Inhibition of pig tubulin polymerization determined after 45 mins at 37 degC by turbidimetric analysis
# Format: protein assay
Let's look at some compounds and their measured IC50.
Entry rule: numbers only, all in nM.

Answered cases to consult:
COc1ccc(C(=O)N2c3ccccc3Oc3ccc(Cl)cc32)cc1 | 570
COc1ccc(C(=O)N2c3ccccc3[S+]([O-])c3ccc(Cl)cc32)cc1 (configuration not stated) | 2790
COc1cc(C(=O)N2c3ccccc3S(=O)(=O)c3ccccc32)cc(OC)c1OC | 2460

Exam item: Give its IC50 value. Item: COc1cc(C(=O)N2c3ccccc3Oc3ccc(Cl)cc32)cc(OC)c1O
Marked response: 680

Exam item: Give its IC50 value. Item: COc1ccc(C(=O)N2c3ccccc3Sc3ccc(Cl)cc32)cc1
Marked response: 870

Exam item: Give its IC50 value. Item: COc1ccc(C(=O)N2c3ccccc3Oc3ccccc32)cc1
Marked response: 1100

Exam item: Give its IC50 value. Item: COc1ccc(C(=O)N2c3ccccc3Oc3ccc(C#N)cc32)cc1
Marked response: 2700

Exam item: Give its IC50 value. Item: O=C(c1ccc([N+](=O)[O-])cc1)N1c2ccccc2Oc2ccc(Cl)cc21
Marked response: 5030

Exam item: Give its IC50 value. Item: COc1ccc(C(=O)N2c3ccccc3[S+]([O-])c3ccccc32)cc1
Marked response: 9390

Exam item: Give its IC50 value. Item: CN(C)c1ccc(C(=O)N2c3ccccc3Oc3ccc(Cl)cc32)cc1
Marked response: 880

###

Let's look at some molecules and their measured GI50 at 72 h.
# procedure details: Antiproliferative activity against human resting PBMC after 72 hrs by sulforhodamine staining method
# Format: cell-based

COc1ccc(C(=O)N2c3ccccc3Oc3cc(C#N)ccc32)cc1O | > 10 µM

Exam item: Give its GI50 at 72 h value. Item: COc1ccc(C(=O)N2c3ccccc3Oc3ccc(Cl)cc32)cc1O
Marked response: > 10 µM

Exam item: Give its GI50 at 72 h value. Item: COc1ccc(C(=O)N2c3ccccc3Oc3cc(C#N)ccc32)cc1
Marked response: > 10 µM

###

# Test system: BT-549
# procedure details: Antiproliferative activity against human BT549 cells after 48 hrs by alamar blue assay
# Assay type: functional, cell-based
# condition context: BT-549, 48 h
Let's look at some molecules and their measured pIC50.
Bear in mind: pIC50 is minus log10 of a mol/L concentration; give just that figure.

Exam item: Give its pIC50 value. Item: COc1ccc(C(=O)N2c3ccccc3Oc3ccc(Cl)cc32)cc1
Marked response: 6.48

Exam item: Give its pIC50 value. Item: COc1ccc(C(=O)N2c3ccccc3Oc3ccc(Cl)cc32)cc1O
Marked response: 6.49

Exam item: Give its pIC50 value. Item: CC(=O)O[C@H]1C(=O)[C@@]2(C)[C@H]([C@H](OC(=O)c3ccccc3)[C@]3(O)C[C@H](OC(=O)[C@H](O)[C@@H](NC(=O)c4ccccc4)c4ccccc4)C(C)=C1C3(C)C)[C@]1(OC(C)=O)CO[C@@H]1C[C@@H]2O [PACLITAXEL]
Marked response: 8.22

Exam item: Give its pIC50 value. Item: COC(=O)Nc1nc2cc(C(=O)c3cccs3)ccc2[nH]1 [NOCODAZOLE]
Marked response: 7.16

These measurements were taken from ChEMBL document CHEMBL1799999.
